tested_system: SMYD2 (Homo sapiens)
Construct: purchased Reaction Biology
Sequence (Q9NRG4 whole entry): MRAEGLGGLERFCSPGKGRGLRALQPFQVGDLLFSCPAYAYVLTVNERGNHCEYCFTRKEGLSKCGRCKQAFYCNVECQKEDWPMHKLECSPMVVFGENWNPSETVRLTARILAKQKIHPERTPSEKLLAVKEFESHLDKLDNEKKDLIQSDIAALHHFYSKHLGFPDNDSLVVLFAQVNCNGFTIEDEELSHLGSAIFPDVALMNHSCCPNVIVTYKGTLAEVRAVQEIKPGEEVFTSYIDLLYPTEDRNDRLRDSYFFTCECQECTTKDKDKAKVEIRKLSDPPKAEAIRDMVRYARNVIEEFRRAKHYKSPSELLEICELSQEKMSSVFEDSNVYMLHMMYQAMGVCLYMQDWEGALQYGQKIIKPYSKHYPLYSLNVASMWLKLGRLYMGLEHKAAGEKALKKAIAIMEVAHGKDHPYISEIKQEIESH
test_name: Radioisotope-based methyltransferase assay (selectivity)
Assay type: biochemical
study_conditions: SMYD2, 1 μM SAM
property_measured: pIC50
Expect pIC50 as a plain number equal to -log10 of the molar concentration.

**Query** Entry Nc1ncnc2c1ncn2[C@@H]1O[C@H](CSCC[C@H](N)C(=O)O)[C@@H](O)[C@H]1O [SAH, S-(5'-Adenosyl)-L-homocysteine, reference compound] has what pIC50?
**Result** 5.72

---

tested_system: ASH1L (Homo sapiens, UniProt Q9NR48)
Construct: purchased Reaction Biology
test_name: Radioisotope-based methyltransferase assay (selectivity)
Format: biochemical
study_conditions: IC50, ASH1L, 1 μM SAM
property_measured: IC50 (nM)
Return type: number; implicit unit nM.

**Query** Entry CN1C(=O)[C@@]23C[C@]4([C@]56C[C@@]78SS[C@@](CO)(C(=O)N7[C@H]5Nc5ccccc56)N(C)C8=O)c5ccccc5N[C@@H]4N2C(=O)[C@]1(CO)SS3 [Chaetocin, reference compound] has what IC50?
**Result** 93

---

tested_system: G9a SET domain (Homo sapiens)
Construct: the human G9a SET domain (residues 913–1193) was synthesized using the E. coli cell-free synthesis method; made in house; host or cells: E. coli cell-free synthesis
Sequence (Q96KQ7 913-1193): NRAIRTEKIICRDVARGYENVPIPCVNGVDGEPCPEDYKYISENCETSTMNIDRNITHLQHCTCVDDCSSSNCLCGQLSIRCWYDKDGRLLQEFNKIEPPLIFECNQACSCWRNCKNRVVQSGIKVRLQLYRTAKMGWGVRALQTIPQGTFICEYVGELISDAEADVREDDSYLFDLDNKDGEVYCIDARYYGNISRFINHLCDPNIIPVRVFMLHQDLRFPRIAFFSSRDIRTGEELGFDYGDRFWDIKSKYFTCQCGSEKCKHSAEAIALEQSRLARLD
test_name: Surface plasmon resonance (SPR)
Assay type: binding
study_conditions: absence of SAM; read-out: Kd
property_measured: Kd (nM)
Return type: number; implicit unit nM.

**Query** Entry Cc1c(C(=O)NC(CCC2CC2)C(=O)Nc2ccc(C#N)cc2)[nH]c2c1C(=O)CC(C)(C)C2 (stereo not shown) has what Kd?
**Result** 750

---

tested_system: NSD3 (Homo sapiens)
Construct: purchased Reaction Biology
Sequence (Q9BZ95 1-1437): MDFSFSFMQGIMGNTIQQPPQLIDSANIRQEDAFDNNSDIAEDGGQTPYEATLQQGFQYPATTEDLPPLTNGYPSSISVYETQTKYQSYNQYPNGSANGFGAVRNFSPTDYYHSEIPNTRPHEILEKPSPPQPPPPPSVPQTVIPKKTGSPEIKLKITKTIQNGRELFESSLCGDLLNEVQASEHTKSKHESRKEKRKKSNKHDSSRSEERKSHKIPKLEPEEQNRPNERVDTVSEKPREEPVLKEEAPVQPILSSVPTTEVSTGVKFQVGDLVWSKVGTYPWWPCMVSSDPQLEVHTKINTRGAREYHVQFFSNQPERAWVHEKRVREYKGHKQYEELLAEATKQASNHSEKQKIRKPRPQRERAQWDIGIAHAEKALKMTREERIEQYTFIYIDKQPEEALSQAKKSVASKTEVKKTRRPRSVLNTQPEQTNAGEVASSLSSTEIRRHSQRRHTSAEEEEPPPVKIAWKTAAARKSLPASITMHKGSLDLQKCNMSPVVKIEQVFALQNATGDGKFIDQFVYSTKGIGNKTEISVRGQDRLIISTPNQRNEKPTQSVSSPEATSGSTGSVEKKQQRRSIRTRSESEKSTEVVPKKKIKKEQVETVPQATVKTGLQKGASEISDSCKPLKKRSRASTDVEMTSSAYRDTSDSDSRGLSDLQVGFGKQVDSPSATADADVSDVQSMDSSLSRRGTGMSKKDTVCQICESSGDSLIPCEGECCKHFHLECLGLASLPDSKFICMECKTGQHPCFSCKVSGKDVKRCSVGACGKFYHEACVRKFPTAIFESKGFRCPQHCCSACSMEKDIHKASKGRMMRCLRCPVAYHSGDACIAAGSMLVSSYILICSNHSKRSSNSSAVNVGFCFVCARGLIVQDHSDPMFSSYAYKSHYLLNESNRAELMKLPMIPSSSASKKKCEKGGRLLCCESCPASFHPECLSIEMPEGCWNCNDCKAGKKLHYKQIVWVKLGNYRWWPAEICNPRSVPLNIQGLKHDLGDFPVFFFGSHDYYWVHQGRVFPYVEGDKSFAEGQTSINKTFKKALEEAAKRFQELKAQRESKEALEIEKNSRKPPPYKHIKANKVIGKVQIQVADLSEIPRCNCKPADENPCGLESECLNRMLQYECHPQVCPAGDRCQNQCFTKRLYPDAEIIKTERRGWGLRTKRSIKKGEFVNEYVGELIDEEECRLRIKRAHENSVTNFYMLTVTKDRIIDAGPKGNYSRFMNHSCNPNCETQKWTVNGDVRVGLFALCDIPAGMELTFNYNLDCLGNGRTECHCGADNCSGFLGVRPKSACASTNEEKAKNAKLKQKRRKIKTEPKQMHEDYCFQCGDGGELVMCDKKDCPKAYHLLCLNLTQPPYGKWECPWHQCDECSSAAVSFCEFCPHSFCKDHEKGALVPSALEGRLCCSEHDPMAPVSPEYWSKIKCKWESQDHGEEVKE
test_name: Radioisotope-based methyltransferase assay (selectivity)
Format: biochemical
study_conditions: NSD3, 1 μM SAM; read-out: IC50
property_measured: IC50

**Query** Entry Cc1c(C(=O)NC(CCC2CC2)C(=O)Nc2ccc(C#N)cc2)[nH]c2c1C(=O)CC(C)(C)C2 (stereo not shown) has what IC50?
**Result** > 100 µM

---

tested_system: MLL3 (Homo sapiens, UniProt Q8NEZ4)
Construct: purchased Reaction Biology
test_name: Radioisotope-based methyltransferase assay (selectivity)
Format: biochemical
study_conditions: MLL3, 1 μM SAM
The following compounds are shown together with reported IC50 values.

**Query** API: value(readout=IC50, system=MLL3 (Homo sapiens, UniProt Q8NEZ4)) for record Nc1ncnc2c1ncn2[C@@H]1O[C@H](CSCC[C@H](N)C(=O)O)[C@@H](O)[C@H]1O [SAH, S-(5'-Adenosyl)-L-homocysteine, reference compound]
**Result** 49.7 µM

**Query** API: value(readout=IC50, system=MLL3 (Homo sapiens, UniProt Q8NEZ4)) for record Cc1c(C(=O)NC(CCC2CC2)C(=O)Nc2ccc(C#N)cc2)[nH]c2c1C(=O)CC(C)(C)C2 (centres unmarked)
**Result** > 100 µM

---

tested_system: PRMT4 (Homo sapiens, UniProt Q86X55)
Construct: purchased Reaction Biology
Sequence (Q86X55 whole entry): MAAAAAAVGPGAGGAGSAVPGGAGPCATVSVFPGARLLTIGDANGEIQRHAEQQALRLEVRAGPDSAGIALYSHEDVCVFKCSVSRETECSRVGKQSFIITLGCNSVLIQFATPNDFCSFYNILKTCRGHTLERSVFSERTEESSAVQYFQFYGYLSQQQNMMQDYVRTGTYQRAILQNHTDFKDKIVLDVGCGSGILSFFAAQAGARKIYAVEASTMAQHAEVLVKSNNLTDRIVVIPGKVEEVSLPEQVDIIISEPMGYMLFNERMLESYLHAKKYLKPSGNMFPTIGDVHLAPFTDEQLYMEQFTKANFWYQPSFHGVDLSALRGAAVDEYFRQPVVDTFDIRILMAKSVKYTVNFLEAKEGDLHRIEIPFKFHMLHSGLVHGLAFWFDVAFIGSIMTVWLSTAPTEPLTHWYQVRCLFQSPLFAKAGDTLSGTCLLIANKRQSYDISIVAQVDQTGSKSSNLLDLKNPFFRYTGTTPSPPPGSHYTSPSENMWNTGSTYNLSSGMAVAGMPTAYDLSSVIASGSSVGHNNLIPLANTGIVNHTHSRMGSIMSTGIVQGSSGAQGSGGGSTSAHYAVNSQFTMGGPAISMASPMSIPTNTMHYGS
test_name: Radioisotope-based methyltransferase assay (selectivity)
Format: biochemical
study_conditions: PRMT4; RK-701 in duplicate
pIC50: −log10 of the molar value.
property_measured: pIC50

**Query** Entry Cc1c(C(=O)NC(CCC2CC2)C(=O)Nc2ccc(C#N)cc2)[nH]c2c1C(=O)CC(C)(C)C2 (stereo not shown) has what pIC50?
**Result** < 4.00

---

tested_system: PRMT5/MEP50 (Homo sapiens)
Sequence (O14744 whole entry): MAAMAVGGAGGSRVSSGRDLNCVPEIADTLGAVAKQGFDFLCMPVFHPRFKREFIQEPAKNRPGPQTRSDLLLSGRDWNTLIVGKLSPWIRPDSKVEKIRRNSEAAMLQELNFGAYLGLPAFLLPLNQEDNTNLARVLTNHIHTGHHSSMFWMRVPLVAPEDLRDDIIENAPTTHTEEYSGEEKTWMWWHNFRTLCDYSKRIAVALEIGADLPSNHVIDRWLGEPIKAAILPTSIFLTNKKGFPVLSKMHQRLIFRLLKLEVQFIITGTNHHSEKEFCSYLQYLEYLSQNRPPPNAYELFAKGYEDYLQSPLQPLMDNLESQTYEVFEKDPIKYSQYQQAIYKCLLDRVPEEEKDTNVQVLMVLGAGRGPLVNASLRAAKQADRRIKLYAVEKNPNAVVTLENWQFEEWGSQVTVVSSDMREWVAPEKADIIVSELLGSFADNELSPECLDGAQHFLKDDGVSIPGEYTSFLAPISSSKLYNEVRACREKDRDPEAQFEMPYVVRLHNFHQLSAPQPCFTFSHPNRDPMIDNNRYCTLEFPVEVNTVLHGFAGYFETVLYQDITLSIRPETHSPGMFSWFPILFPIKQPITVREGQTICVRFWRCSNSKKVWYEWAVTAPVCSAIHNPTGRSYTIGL
Sequence (Q9BQA1 whole entry partner): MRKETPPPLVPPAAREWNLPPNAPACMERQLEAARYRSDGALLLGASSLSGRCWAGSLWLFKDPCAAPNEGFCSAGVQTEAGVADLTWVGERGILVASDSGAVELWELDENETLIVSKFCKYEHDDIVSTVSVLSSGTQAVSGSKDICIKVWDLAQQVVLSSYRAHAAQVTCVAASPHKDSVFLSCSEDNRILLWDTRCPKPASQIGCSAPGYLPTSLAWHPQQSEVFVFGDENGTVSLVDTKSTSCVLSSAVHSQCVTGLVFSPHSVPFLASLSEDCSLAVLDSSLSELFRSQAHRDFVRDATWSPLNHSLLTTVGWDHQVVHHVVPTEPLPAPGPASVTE
test_name: Radioisotope-based methyltransferase assay (selectivity)
pIC50: −log10 of the molar value.
property_measured: pIC50

**Query** Entry Cc1c(C(=O)NC(CCC2CC2)C(=O)Nc2ccc(C#N)cc2)[nH]c2c1C(=O)CC(C)(C)C2 (stereo not shown) [RK-701] has what pIC50?
**Result** < 4.00

---

test_name: Liver microsomal stability assay, monkey
Type: in vitro ADME
study_conditions: monkey, liver microsomes, Metabolic stability, % remaining of RK-701, Monkey; Time 20; replicate values
property_measured: remaining at 20 min, 1 µM (%)
Return type: number; implicit unit %.

**Query** Entry Cc1c(C(=O)NC(CCC2CC2)C(=O)Nc2ccc(C#N)cc2)[nH]c2c1C(=O)CC(C)(C)C2 (stereo not shown) has what remaining at 20 min, 1 µM?
**Result** 57.4

---

The following compounds are shown together with reported viability at 0.00457247 μM values.
test_name: Cell viability assay (WST-8), HUDEP-2
Format: cell-based, human
study_conditions: human, HUDEP-2 cells, 0.00457247 μM; control (0 μM) = 100
Return type: number; implicit unit %.

{"compound": "COc1cc2c(NC3CCN(C(C)C)CC3)nc(C3CCCCC3)nc2cc1OCCCN1CCCC1 [UNC0638]", "viability at 0.00457247 μM (%)": 97.7}

**Query** Entry COc1cc2c(NC3CCN(C(C)C)CC3)nc(N3CCC(F)(F)CC3)nc2cc1OCCCN1CCCC1 [UNC0642] has what viability at 0.00457247 μM?
**Result** 97.1

---

tested_system: PRMT8 (Homo sapiens)
Sequence (Q9NR22 whole entry): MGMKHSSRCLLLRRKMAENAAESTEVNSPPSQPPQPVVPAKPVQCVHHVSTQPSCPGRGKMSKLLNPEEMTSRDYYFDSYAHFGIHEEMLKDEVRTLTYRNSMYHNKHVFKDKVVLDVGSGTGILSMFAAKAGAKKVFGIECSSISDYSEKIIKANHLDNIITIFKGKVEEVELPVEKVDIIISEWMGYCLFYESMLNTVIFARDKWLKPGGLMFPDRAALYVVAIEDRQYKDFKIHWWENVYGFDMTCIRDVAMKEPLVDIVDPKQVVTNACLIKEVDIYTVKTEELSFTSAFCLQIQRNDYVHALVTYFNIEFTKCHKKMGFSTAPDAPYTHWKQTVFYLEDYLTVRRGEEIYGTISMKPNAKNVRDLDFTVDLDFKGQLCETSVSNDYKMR
test_name: biochemical
pIC50: −log10 of the molar value.
property_measured: pIC50

**Query** API: value(readout=pIC50, system=PRMT8 (Homo sapiens)) for record Cc1c(C(=O)NC(CCC2CC2)C(=O)Nc2ccc(C#N)cc2)[nH]c2c1C(=O)CC(C)(C)C2 (stereo not shown)
**Result** < 4.00

---

tested_system: DNMT3b (Homo sapiens, UniProt Q9UBC3)
test_name: biochemical
property_measured: pIC50
Expect pIC50 as a plain number equal to -log10 of the molar concentration.

**Query** Entry Nc1ncnc2c1ncn2[C@@H]1O[C@H](CSCC[C@H](N)C(=O)O)[C@@H](O)[C@H]1O [SAH, S-(5'-Adenosyl)-L-homocysteine, reference compound] has what pIC50?
**Result** 6.95

All values here come from paper PMC9837035.
